Data credit: PubChem BioAssay

Tested on: Sonic hedgehog protein (Shh)
Test: Sonic hedgehog microarray binding compounds – biochemical, small-molecule microarray, 635/667 nm fluorescence, primary screen (AID 1151);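 also: Shh protein binding to compounds spotted on small-molecule microarray slides; score combines spot fluorescence intensity with signal-to-noise across triplicate slides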
Conditions: 635 nm fluorescence, higher = more signal
assay-metric: composite z-score

// composite z-score value for CC(C)Cc1ccc(CN2CC[C@@H](N)C2)cc1 : -0.0963

// composite z-score value for CC(C)N1CC=CC23O[C@@H]4C=CCOC(=O)[C@@H]4[C@H]2C(=O)N(CCCCCO)[C@@H]3C1=O (stereo partly specified) : 0.0095

// composite z-score value for [N-]=[N+]=Nc1ccccc1C[C@]1(C(=O)NCc2ccccc2)N=C(c2ccc(OCCCO)cc2)O[C@H]1c1ccccc1N=[N+]=[N-] : -0.4

// composite z-score value for COC(=O)c1c2oc(c1C(=O)OC)C(=O)NC1(CCCCC1)c1cn(nn1)C[C@H](Cc1ccccc1)NC(=O)N[C@H](CO)CC2 : 1.32

// composite z-score value for CCCC1(C(=O)OC)C=C2C(=C(c3ccccc3)C(=O)C2C)CN1 (stereo unspecified) : -0.599

// composite z-score value for C=C(CCCC)/C(=C/C[C@H](OC(=O)c1ccncc1)c1ccc(OCCO)cc1)c1cc(C(=O)OC)ccc1OC : 1.96
